tested-system: T1, rat beta CGRP (SEQ ID NO: 83) (rat, not fully specified)
T1 construct: also called rat βCGRP; rat β-CGRP
T1 peptide: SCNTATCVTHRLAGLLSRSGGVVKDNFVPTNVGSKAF
experiment-summary: SPR, 37 C, mutein captured, CGRP analyte
observation-type: koff (s⁻¹)
Give just the numeric value; s⁻¹ need not be written.

Query: So what does the record say about koff for lipocalin mutein SEQ ID NO: 15 (designed binder, biotinylated by NHS chemistry for capture in SPR) QDSTSDLIPAPPLSKVPLQQNFQDNQFHGKWYVVGRAANDRLREDKDPEKMEATIYELKEDKSYNVTDVGFSRKKCIYVIHTFVPGSQPGEFTLGNIKSYPGTTSGLVRVVSTNYNQHAMVFFKVVGQNRESFEITLYGRTKELTSELKENFIRFSKSLGLPENHIVFPVPIDQCIDGSAWSHPQFEK ?
Response: 0.000193

Query: Check lipocalin mutein SEQ ID NO: 20 (designed binder, biotinylated by NHS chemistry for capture in SPR) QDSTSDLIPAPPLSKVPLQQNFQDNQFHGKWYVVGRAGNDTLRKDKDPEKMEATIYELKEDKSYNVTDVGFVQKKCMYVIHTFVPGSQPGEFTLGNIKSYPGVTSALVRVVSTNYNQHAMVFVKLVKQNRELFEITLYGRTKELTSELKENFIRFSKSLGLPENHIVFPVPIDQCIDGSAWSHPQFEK too.
Response: 1.84e-05

Query: Check lipocalin mutein SEQ ID NO: 24 (designed binder, biotinylated by NHS chemistry for capture in SPR) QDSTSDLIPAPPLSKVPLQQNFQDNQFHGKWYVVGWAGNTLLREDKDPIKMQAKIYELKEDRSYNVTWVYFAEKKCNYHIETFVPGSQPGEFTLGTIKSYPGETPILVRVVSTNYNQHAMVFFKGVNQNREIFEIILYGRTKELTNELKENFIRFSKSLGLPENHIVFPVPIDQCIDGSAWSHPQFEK too.
Response: 1.22e-05

Query: Check lipocalin mutein SEQ ID NO: 14 (designed binder, biotinylated by NHS chemistry for capture in SPR) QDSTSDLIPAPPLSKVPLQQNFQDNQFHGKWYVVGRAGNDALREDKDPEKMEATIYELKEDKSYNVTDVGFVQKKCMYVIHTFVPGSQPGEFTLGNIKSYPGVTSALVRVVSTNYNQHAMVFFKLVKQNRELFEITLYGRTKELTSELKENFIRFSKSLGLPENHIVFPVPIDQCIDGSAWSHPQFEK too.
Response: 0.000181

Query: Check lipocalin mutein SEQ ID NO: 25 (designed binder, biotinylated by NHS chemistry for capture in SPR) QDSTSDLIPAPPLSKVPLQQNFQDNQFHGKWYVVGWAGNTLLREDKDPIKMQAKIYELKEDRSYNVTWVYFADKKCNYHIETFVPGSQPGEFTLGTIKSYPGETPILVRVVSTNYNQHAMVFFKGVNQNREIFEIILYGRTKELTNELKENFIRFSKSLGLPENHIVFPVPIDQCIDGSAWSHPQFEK too.
Response: 1.33e-05

Query: Check lipocalin mutein SEQ ID NO: 9 (designed binder, biotinylated by NHS chemistry for capture in SPR) QDSTSDLIPAPPLSKVPLQQNFQDNQFHGKWYVVGWAGNTLLREDKDPIKMQATIYELKEDKSYDVTWVYLSEKKCNYHIETSVPGSQPGEFTLGTIKSYPGETSILVRVVSTNYNQHAMVFFKGMSQNREIFEITLYGRTKELASELKENFIRFSKSLGLPENHIVFPVPIDQCIDGSAWSHPQFEK too.
Response: 0.000275
